# assay method text: Tissue distribution of radioactivity after intravenous administration in rats
# Format: in vivo, female Fischer 344 rats (printed "femal Fischer 344 rats")
# protocol conditions: rat, blood, iv, Table 1; blood; 5 min after i.v. injection; read-out: Mean percent injected dose/gm, Blood
attribute measured: tissue uptake at 5 min (%ID/g)
Field: numeric (%ID/g). Do not append units.

Problem: Sample O=C1C=CC(=O)N1c1ccc([125I])cc1 [[^125 I]4, N-(p-[^125 I]iodophenyl)maleimide] — what was its tissue uptake at 5 min?
Result: 8.84

---

# assay method text: Tissue distribution of radioactivity after intravenous administration in rats
# Type: in vivo, female Fischer 344 rats (printed "femal Fischer 344 rats")
# protocol conditions: rat, lungs, iv, Table 1; lungs; 30 min after i.v. injection; read-out: Mean percent injected dose/gm, Lungs
attribute measured: tissue uptake at 0.5 h (%ID/g)
Your answer is read as %ID/g, so omit the unit and give the number.

Problem: Dear colleague, I am looking for the recorded tissue uptake at 0.5 h of the following compound: O=C1C=CC(=O)N1c1ccc([125I])cc1 [[^125 I]4, N-(p-[^125 I]iodophenyl)maleimide]
Result: 2.52

---

# assay method text: Tissue distribution of radioactivity after intravenous administration in rats
# Type: in vivo, female Fischer 344 rats (printed "femal Fischer 344 rats")
# protocol conditions: rat, thyroid, iv, Table 1; thyroid; 60 min after i.v. injection; read-out: Mean percent injected dose/gm, Thyroid
attribute measured: tissue uptake at 1 h
Please answer in the form of a number followed by its unit of measurement.

Problem: I have this compound here, O=C1C=CC(=O)N1c1ccc([125I])cc1 [[^125 I]4, N-(p-[^125 I]iodophenyl)maleimide] , and I need its recorded tissue uptake at 1 h.
Result: 20.5 %ID/g

---

# assay method text: Tissue distribution of radioactivity after intravenous administration in rats
# Type: in vivo, female Fischer 344 rats (printed "femal Fischer 344 rats")
# protocol conditions: rat, kidneys, iv, Table 2; kidneys; 60 min after i.v. injection; read-out: Mean percent injected dose/gm, Kidneys
# Description: 4-[^125 I]iodoaniline (7.4 mCi sp. act. 700 mCi/mmol) prepared following structure described in Step 1 of Example 1 was coupled with maleic anhydride (9.5 mg) in glacial acetic acid (0.15 ml) at room temperature. The radioiodinated compound, [^125 I]3 isolated by silica gel column chromatography was refluxed with acetic anhydride The distribution of radiactivity in tissues of femal Fischer 344 rats […] The distribution of radioactivity in tissues of femal Fischer 344 rats […]
attribute measured: tissue uptake at 1 h (%ID/g)
Report the value in %ID/g with no unit label.

Problem: If you can, please state the reported tissue uptake at 1 h value of O=C1C=CC(=O)N1c1ccc([125I])cc1 [[^125 I]4, N-(p-[^125 I]iodophenyl)maleimide] .
Result: 2.21

---

# assay method text: Tissue distribution of radioactivity after intravenous administration in rats
# Assay type: in vivo, female Fischer 344 rats (printed "femal Fischer 344 rats")
# protocol conditions: rat, blood, iv, Table 1; blood; 60 min after i.v. injection; read-out: Mean percent injected dose/gm, Blood
# Protocol: 4-[^125 I]iodoaniline (7.4 mCi sp. act. 700 mCi/mmol) prepared following structure described in Step 1 of Example 1 was coupled with maleic anhydride (9.5 mg) in glacial acetic acid (0.15 ml) at room temperature. The radioiodinated compound, [^125 I]3 isolated by silica gel column chromatography was refluxed with acetic anhydride The distribution of radiactivity in tissues of femal Fischer 344 rats […] The distribution of radioactivity in tissues of femal Fischer 344 rats […]
attribute measured: tissue uptake at 1 h (%ID/g)
Only the number, expressed in %ID/g, is required.

Problem: Please look up its tissue uptake at 1 h: O=C1C=CC(=O)N1c1ccc([125I])cc1 [[^125 I]4, N-(p-[^125 I]iodophenyl)maleimide]
Result: 7.56

Origin of measurements: patent US4735792A
